From: ChEMBL document CHEMBL1152582

- PROTOCOL_DETAILS: in vitro
- TEST_SETTINGS: rat, hepatocytes
- Description: Clearance in rat hepatocytes
For each record, write down the corresponding log10 of CLhep predicted.
# log10 transformed; quantity=CLhep predicted; unit=mL/min/kg

Give the value of log10 of CLhep predicted reported for the following: `O=C1O[C@]2(CC[C@H](C(=O)Nc3ccn(-c4ccccc4)n3)CC2)c2cccnc21`
0.60

Give the value of log10 of CLhep predicted reported for the following: `O=C1O[C@]2(CC[C@H](C(=O)Nc3cnn(-c4ccccc4)n3)CC2)c2cnccc21`
1.32

Give the value of log10 of CLhep predicted reported for the following: `O=C1O[C@]2(CC[C@H](C(=O)Nc3ncc(-c4ccccc4)cn3)CC2)c2ccncc21`
1.62

Give the value of log10 of CLhep predicted reported for the following: `O=C1O[C@]2(CC[C@H](C(=O)Nc3ccn(-c4ccccc4F)n3)CC2)c2cnccc21`
0.95

Give the value of log10 of CLhep predicted reported for the following: `O=C1O[C@]2(CC[C@H](C(=O)Nc3csc(-c4ccccc4)n3)CC2)c2cnccc21`
1.08
